- Tested on: HCI01 (cells of a triple-negative basal-like breast cancer xenograft)
- PROCEDURE_SUMMARY: cell viability of combination (% of vehicle); higher = less cytotoxic
- COND: 1 µM; 72 h; partner dose: 10 nM

# MOLECULE, TARGET, cell viability of combination
records = [
    ("Clc1ccc(C(Cn2ccnc2)OCc2c(Cl)cccc2Cl)c(Cl)c1.O=[N+]([O-])O (configuration not stated) [Isoconazole nitrate] + CN(C)C/C=C/C(=O)Nc1cc2c(Nc3ccc(F)c(Cl)c3)ncnc2cc1O[C@H]1CCOC1", "HCI01", 63.8),
    ("CNC(=O)c1cc(Oc2ccc(NC(=O)Nc3ccc(Cl)c(C(F)(F)F)c3)cc2)ccn1 [Sorafenib] + CN(C)C/C=C/C(=O)Nc1cc2c(Nc3ccc(F)c(Cl)c3)ncnc2cc1O[C@H]1CCOC1", "HCI01", 49.6),
]

* * *

- System: WHIM2 (cells of a triple-negative basal-like breast cancer xenograft)
- PROCEDURE_SUMMARY: cell viability (% of vehicle); higher = less cytotoxic
- COND: 10 µM; 72 h
MEASURED_PARAMETER: cell viability

# MOLECULE, RESULT
records = [
    ("CCCCC(=O)N(Cc1ccc(-c2ccccc2-c2nn[nH]n2)cc1)C(C(=O)O)C(C)C (stereo not given)", 101),
    ("CNC(=C[N+](=O)[O-])NCCSCc1ccc(CN(C)C)o1.Cl", 85.6),
    ("CCCCCCCCCCCCCCCCO", 94.2),
    ("CC(C)CC(N)=O [Isovaleramide]", 98.5),
    ("Cc1ccc2c(Cl)cc(Cl)c(O)c2n1", 94.2),
]

* * *

- Test system: HCI16 (cells of a triple-negative basal-like breast cancer xenograft)
- PROCEDURE_SUMMARY: cell viability (% of vehicle); higher = less cytotoxic
- COND: 10 µM; 72 h
Measured cell viability by item

# COMPOUND, TARGET, cell viability
records = [
    ("CC(=O)O[C@H]1C(=O)[C@@]2(C)[C@H]([C@H](OC(=O)c3ccccc3)[C@]3(O)C[C@H](OC(=O)[C@H](O)[C@@H](NC(=O)c4ccccc4)c4ccccc4)C(C)=C1C3(C)C)[C@]1(OC(C)=O)CO[C@@H]1C[C@@H]2O [Paclitaxel (Taxol)]", "HCI16", 156),
    ("CC(CCC(=O)O)C1CCC2C3C(O)CC4CC(O)CCC4(C)C3CC(O)C12C (stereo unspecified) [Cholic acid]", "HCI16", 98.7),
    ("CNC(=O)C(Cc1c[nH]c2ccccc12)NC(=O)C(CC(=O)NO)CC(C)C (stereo unspecified)", "HCI16", 140),
    ("CN(C)CCCC1(c2ccc(F)cc2)OCc2cc(C#N)ccc21.O=C(O)C(=O)O (stereo unspecified) [Escitalopram Oxalate]", "HCI16", 128),
    ("CC(CCc1ccccc1)NCC(O)c1ccc(O)c(C(N)=O)c1.Cl (stereo unspecified) [Labetalol HCl]", "HCI16", 112),
    ("Clc1ccc(C(Cn2ccnc2)OCc2ccc(Sc3ccccc3)cc2)c(Cl)c1.O=[N+]([O-])O (stereo unspecified) [Fenticonazole Nitrate]", "HCI16", 105),
]

* * *

- System: HCI01
- PROCEDURE_SUMMARY: cell viability (% of vehicle); higher = less cytotoxic
- COND: 10 µM; 72 h
Where a name gives a salt, the structure may show the parent alone.
Each item that follows carries a reported cell viability.

# MOLECULE, cell viability
measured = [
    ("CN1CCN(CCCN2c3ccccc3Sc3ccc(Cl)cc32)CC1", 113),
    ("C[N+]1(C)[C@@H]2C[C@@H](OC(=O)C(O)(c3cccs3)c3cccs3)C[C@H]1[C@@H]1O[C@@H]12.[Br-] [Tiotropium Bromide]", 124),
    ("CCN(CCO)CCCC(C)Nc1ccnc2cc(Cl)ccc12.O=S(=O)(O)O (stereo unspecified) [Hydroxychloroquine Sulfate]", 71.8),
    ("NC(=O)c1ncn(C2OC(CO)C(O)C2O)n1 (stereo unspecified)", 72.7),
    ("CC(C)c1nc(N(C)S(C)(=O)=O)nc(-c2ccc(F)cc2)c1C=CC(O)CC(O)CC(=O)[O-].CC(C)c1nc(N(C)S(C)(=O)=O)nc(-c2ccc(F)cc2)c1C=CC(O)CC(O)CC(=O)[O-].[Ca+2] (stereo unspecified)", 109),
    ("Cc1cc(Nc2cc(N3CCN(C)CC3)nc(Sc3ccc(NC(=O)C4CC4)cc3)n2)n[nH]1", 122),
    ("COC(=O)C1=C(C)NC(C)=C(C(=O)OCC(C)C)C1c1ccccc1[N+](=O)[O-] (stereo unspecified)", 98.3),
    ("Cc1ccsc1C(=CCCN1CCC[C@@H](C(=O)O)C1)c1sccc1C [Tiagabine hydrochloride]", 100),
    ("Cc1cc(Nc2ncc(Cl)c(Nc3ccccc3S(=O)(=O)C(C)C)n2)c(OC(C)C)cc1C1CCNCC1", 34.4),
    ("CCc1c(Cl)c(O)c(Cl)c(O)c1C(=O)OC1C(C)OC(OCC2=CC=CCC(O)C(C)=CC(CC)C(OC3OC(C)(C)C(OC(=O)C(C)C)C(O)C3O)C(C)=CC(C)=CCC(C(C)O)OC2=O)C(OC)C1O (stereo unspecified)", 39.9),
    ("COc1cc2nccc(Oc3ccc(NC(=O)C4(C(=O)Nc5ccc(F)cc5)CC4)cc3)c2cc1OC.O=C(O)CC(O)C(=O)O [Cabozantinib malate (XL184)]", 88.7),
    ("Cc1cncc(CN2CCC(=C3c4ccc(Cl)cc4CCc4cccnc43)CC2)c1.O=C(O)C=CC(=O)O [Rupatadine Fumarate]", 89.8),
    ("COc1cc(Nc2nc3ccccc3nc2NS(=O)(=O)c2ccc(NC(=O)c3ccc(C)c(OC)c3)cc2)cc(OC)c1", 86.4),
    ("COC(=O)NC(C(=O)NC(Cc1ccccc1)C(O)CN(Cc1ccc(-c2ccccn2)cc1)NC(=O)C(NC(=O)OC)C(C)(C)C)C(C)(C)C.O=S(=O)(O)O (stereo unspecified)", 134),
    ("CN(C)CCOC(c1ccccc1)c1ccccc1.Cl [Diphenhydramine HCl]", 109),
    ("CCN(CC)CCNC(=O)c1cc(Cl)c(N)cc1OC [Metoclopramide]", 112),
    ("COC(=O)C=CC(=O)OC [Dimethyl Fumarate]", 126),
    ("CN(C)c1ccc(C(=C2C=CC(=[N+](C)C)C=C2)c2ccc(N(C)C)cc2)cc1.[Cl-]", 28.8),
    ("CN(C)CC=CC(=O)Nc1cc2c(Nc3ccc(F)c(Cl)c3)ncnc2cc1OC1CCOC1.O=C(O)C=CC(=O)O.O=C(O)C=CC(=O)O (stereo unspecified) [Afatinib dimaleate]", 35.3),
    ("CC1(C(=O)[O-])CCC2(C)CCC3(C)C(=CC(=O)C4C5(C)CCC(OC(=O)CCC(=O)[O-])C(C)(C)C5CCC43C)C2C1.[Na+].[Na+] (stereo unspecified) [Carbenoxolone disodium]", 84.3),
    ("CC(CCC(=O)O)C1CCC2C3CCC4CC(O)CCC4(C)C3CC(O)C12C (stereo unspecified)", 119),
    ("C=CCc1cc(OC)c(O)c(C(=O)NCCO)c1 [Alibendol]", 98.3),
    ("COc1cc2c(cc1OC)CC(=O)N(CCCN(C)CC1Cc3cc(OC)c(OC)cc31)CC2.Cl (stereo unspecified) [Ivabradine HCl]", 105),
    ("COC(=O)Nc1nc2ccc(S(=O)c3ccccc3)cc2[nH]1 (stereo unspecified)", 102),
    ("Cc1ncc([N+](=O)[O-])n1CC(C)O (stereo unspecified)", 57.6),
    ("CC1C=CC=CC=CC=CC=CC=CC=CC(OC2OC(C)C(O)C(N)C2O)CC2OC(O)(CC(O)CC(O)C(O)CCC(O)CC(O)CC(=O)OC(C)C(C)C1O)CC(O)C2C(=O)O (stereo unspecified)", 108),
]
